Assignment: determine reported apparent KD of MS2 coat protein for the given sequences.
test system: MS2 coat protein; experiment: apparent KD of MS2 coat protein, switch OFF state (with FMN for OFF switches, without FMN for ON switches); designed switch direction (-1 OFF switch, 1 ON switch): -1; higher = weaker reporter binding; conditions: FMN input: 0 or 200 uM; Eterna round: R93 (includes R88 designs)
Numbers only, in nM.

AAAAAACAUGAGGAUCACCCAUGUCAGGAUAUCCGGUUCAAAAAAAAAAAAAGGCGUUGGAGAAGGGACAUUCC [Chica Displaced 10 - Jieux - Exclusion 1]    36.4

Batch: apparent KD of MS2 coat protein for all items listed.
1. AAAAAACAUGAGGAUCACCCAUGUUAGGAUAUGCUAUGGAAAAUAAAAAUAAAACAUAGCAGAAGGAACAAAAA [Denovo 2]
2. AAUUAGGUAGGAUAUACAUGAGGAUCACCCAUGUGGGAAAAAAACUACGAAAAAGAAUGUAGAAGGACCUAAAA [Mat - Exclusion 3 - Mayanna mod - D104]

1: 36.9; 2: 96.5

###

tested on: MS2 coat protein; test: apparent KD of MS2 coat protein; designed switch direction (-1 OFF switch, 1 ON switch): -1; higher = weaker reporter binding; details: Eterna round: R95; input ligand: none
Could you please report measured apparent KD of MS2 coat protein for the items listed next?
One number for each entry, in µM.

Reference set (9 entries):
CUGAGCAGACGGAGAUCCAACAUGAGGAUCACCCAUGUCUCAAAAGCUUUUUGCUCGUCUUAUCCUCCUCUGCUCUC [Orgeain] (puzzle: Sensor v3, turn-off variant 1)    0.0141
AAACGGCGGAUCGUGGCUUUUUGCUCGUCUUGUGCUUCAACAUGAGGAUCACCCAUGUAGUGGUGAUCCGUUGUAAA [Grok-var2-17 mod JAL] (puzzle: Sensor v3, turn-off variant 2)    0.0421
AGAUGGCGAGGAUAUACAUGAGGAUCACCCAUGUGAAGAUAAAGAGUGAGGAAGAAAAGUAGAAGGCGCUGUCA [Mat - Exclusion 3 - Mod of Salish D28] (puzzle: Exclusion 3)    0.123
AGUAGGUCUACCUUGGUGGAUCUGCAUUUAAGCAGGUGUACAUGAGGAUCACCCAUGUCCUCAUUUGCUCGUCUUAU [JL turnoff v2 99.30] (puzzle: Sensor v3, turn-off variant 2)    0.492
GUUAAACAUGAGGAUCACCCAUGUAAGGAUAUGCUGAGGUAGCGCUGACGUGAAUGAAGCAGAAGGUACAAAUG [Mat - Mod of JL D64] (puzzle: Exclusion 1)    0.062
CCCAGGGCAGGAUAUAGAGGGUGAAACAUGAGGAUCACCCAUGUGACCUCGGAACAGCUGCUAGAAGGGCCAAAUU [Eszaraxe] (puzzle: Exclusion 5)    0.0163
AGUACUAACACGAGAGUGUUAGUACUAUAAGCUUGUGAAACAUGAGGAUCACCCAUGUCCUCAUAAGCUCGUCUUAU [Mat - Sensor v3 - Turn-off var 2 - D103] (puzzle: Sensor v3, turn-off variant 2)    0.0125
AGGUAACAUGAGGAUCACCCAUGUCAGGAUAUCAGUAAGAUUAGAAUAGAGUAGAGUAUGAGAAGGGACUAUAU [Excluse me! 20 - Jieux - Exclusion 1] (puzzle: Exclusion 1)    0.05
CUCCUCAUGGCGCCUAAACACAUGAGGAUCACCCAUGUACAGGCUCUUUGCCGUCUUAUAAUAAAACCGAGGAUGCG [Ageusan] (puzzle: Sensor v3, turn-off variant 1)    0.0364

Moving on to another sequence below.
The measured apparent KD of MS2 coat protein associated with AGUACUAACACGAAAGUGUUAGUACAAUAAGCUUGUGAUACAUGAGGAUCACCCAUGUCCUCAUAAGCUCGUCUUAU [salish99_TOv2_r3_045] (puzzle: Sensor v3, turn-off variant 2) reads 0.0219
